Taken from ChEMBL document CHEMBL3988442.

assay: In vitro enzyme assay to detect hydrolysis of chlorophenol red-beta-D-[…] directly proportional to the number of Toxoplasma stably expressing beta-galactosidase; format: functional, organism-based, Toxoplasma gondii; set-up: scale not given: in the data most compounds retested in dose-response had high values; conditions: 50 µM
Out of some 85,000 compounds screened, about 440 (0.52%) showed an effect of 50% or more. What follows is part of a selection rich in strong results, with near analogues and random picks from the rest.
Readings of Percent Effect for the listed molecules
Respond with the bare value in %.

[
  {
    "Molecule": "Brc1cc2c(cc1CN1CCCNCC1)OCO2",
    "Units Text": "%",
    "Data Value": -4.823
  },
  {
    "Molecule": "NC(=O)COc1ccc(CNCCn2cccn2)cc1",
    "Units Text": "%",
    "Data Value": 11.26
  },
  {
    "Molecule": "Cn1cc(S(N)(=O)=O)c(C(F)(F)F)n1",
    "Units Text": "%",
    "Data Value": 17.97
  }
]

Fill blank: measured Percent Effect of the molecule CC(Nc1ccc(C#N)cn1)c1ccc2c(c1)OCO2 (centres undefined) is ____.
3.939

Entry under review: CC(CCNC(=O)CCc1cccnc1)n1ccnc1 (centres undefined) . Reported Percent Effect?
-1.131

Sample CC(=O)Nc1ccc(C(C)N)cc1 (centres undefined) — what was its Percent Effect?
-11.91

Param item = "Cc1cc(S(=O)(=O)N[C@@H]2CCOC[C@H]2O)n(C)n1" ; retrieve measured Percent Effect.
15.92

Requested field: Percent Effect. Item: "Cc1cc(=O)cc(C(=O)NCCCc2ccncc2)o1"
15.6

Which measured Percent Effect value corresponds to "Cn1cc(CN)c(C(F)(F)F)n1" ?
98.21

Percent Effect lookup needed for N#Cc1cccnc1NCC1COc2ccccc2O1 (centres undefined) , thanks.
-5.408

Tell me the measured Percent Effect of C1CC(C2CNC2)CO1 (centres undefined) , please.
5.994

// returns reported Percent Effect for input "CCOC(=O)N1CCN(C(=O)c2onc(C)c2Cl)CC1"
1.461

Quick one: Percent Effect of C1CC(C2CCOC2)CCN1 (centres undefined) ?
0.8119

Look up Percent Effect: Cc1ccc(CNC(=O)C2CCCCC(=O)N2)o1 (centres undefined)
50.04

----------
assay: In vitro enzyme assay to detect hydrolysis of chlorophenol red-beta-D-[…] directly proportional to the number of Toxoplasma stably expressing beta-galactosidase; format: functional, organism-based, Toxoplasma gondii; set-up: scale not given: in the data most compounds retested in dose-response had high values; conditions: 10 µM
Screen size: about 85,000 compounds; about 440 (0.52%) showed an effect of 50% or more. The list comes from a sample in which strong results are over-represented; it also holds close analogues and randomly drawn compounds.
Observation Type: Percent Effect (%)
Field: numeric (%). Do not append units.

[
  {
    "Compound": "Cc1nc(N2CCN(C(=O)C3CC3)CC2)c2c(n1)c(C)nn2C",
    "Units Text": "%",
    "Percent Effect": 0.4782
  }
]

Data request, read-out Percent Effect, for Cn1nnc2c1C(COCC1CC1)CN(C(=O)Cc1ccsc1)C2 (centres undefined)
-4.213

For the compound shown here, Cn1nnc2c1C(COCC1CC1)CN(C(=O)Cc1cccs1)C2 (centres undefined) , give the reported Percent Effect.
56.28

Would you kindly share the measured Percent Effect for "Nc1nc2c(c(NCc3ccncc3)n1)CCCC2" ?
12.09

Dear colleague, I am looking for the recorded Percent Effect of the following compound: CC(C)NC(=O)C1CN(C(=O)Cc2ccccc2)CC12CCOCC2 (centres undefined)
0.09588

# Percent Effect lookup, item "CCS(=O)(=O)N1CCN(C(=O)c2cnc3[nH]nc(C)c3c2)CC1"
-8.634
